# Run Conditions: in ethyl acetate, 308.2 K
Property Label: solubility (mole fraction)

INSERT INTO measurements (smiles_str, property_label, readout_number) VALUES
  ('O=C(/C=C/C=C/c1ccc2c(c1)OCO2)N1CCCCC1', 'solubility (mole fraction)', 0.0123);

###

# Run Conditions: in transcutol, 313.2 K
Property Label: solubility (mole fraction)

INSERT INTO measurements (smiles_str, readout_number) VALUES
  ('O=C(/C=C/C=C/c1ccc2c(c1)OCO2)N1CCCCC1', 0.0883);

###

# Run Conditions: in ethylene glycol, 308.2 K
Property Label: solubility (mole fraction)

INSERT INTO results (smiles_str, result) VALUES
  ('O=C(/C=C/C=C/c1ccc2c(c1)OCO2)N1CCCCC1', 0.00515);

###

# Run Conditions: in DMSO, 313.2 K
Property Label: solubility (mole fraction)

INSERT INTO assay_data (smiles_str, readout_number) VALUES
  ('O=C(/C=C/C=C/c1ccc2c(c1)OCO2)N1CCCCC1', 0.0339);

###

# Run Conditions: in propylene glycol, 313.2 K
Property Label: solubility (mole fraction)

INSERT INTO assay_data (smiles_str, result) VALUES
  ('O=C(/C=C/C=C/c1ccc2c(c1)OCO2)N1CCCCC1', 0.0134);

###

# Run Conditions: in methanol, 308.2 K
Property Label: solubility (mole fraction)

INSERT INTO results (smiles_str, property_label, readout_number) VALUES
  ('O=C(/C=C/C=C/c1ccc2c(c1)OCO2)N1CCCCC1', 'solubility (mole fraction)', 0.00648);

###

# Run Conditions: in isopropanol, 298.2 K
Property Label: solubility (mole fraction)

INSERT INTO assay_data (smiles_str, property_label, readout_number) VALUES
  ('O=C(/C=C/C=C/c1ccc2c(c1)OCO2)N1CCCCC1', 'solubility (mole fraction)', 0.0123);

###

# Run Conditions: in ethanol, 318.2 K
Property Label: solubility (mole fraction)

INSERT INTO measurements (smiles_str, readout_number) VALUES
  ('O=C(/C=C/C=C/c1ccc2c(c1)OCO2)N1CCCCC1', 0.0134);

###

# Run Conditions: in isopropanol, 318.2 K
Property Label: solubility (mole fraction)

INSERT INTO assay_data (smiles_str, result) VALUES
  ('O=C(/C=C/C=C/c1ccc2c(c1)OCO2)N1CCCCC1', 0.0182);

###

# Run Conditions: in transcutol, 318.2 K
Property Label: solubility (mole fraction)

INSERT INTO results (smiles_str, readout_number) VALUES
  ('O=C(/C=C/C=C/c1ccc2c(c1)OCO2)N1CCCCC1', 0.0917);

###

# Run Conditions: in ethanol, 313.2 K
Property Label: solubility (mole fraction)

INSERT INTO assay_data (smiles_str, property_label, readout_number) VALUES
  ('O=C(/C=C/C=C/c1ccc2c(c1)OCO2)N1CCCCC1', 'solubility (mole fraction)', 0.012);

###

# Run Conditions: in methanol, 313.2 K
Property Label: solubility (mole fraction)

INSERT INTO assay_data (smiles_str, result) VALUES
  ('O=C(/C=C/C=C/c1ccc2c(c1)OCO2)N1CCCCC1', 0.00719);

###

# Run Conditions: in n-butanol, 298.2 K
Property Label: solubility (mole fraction)

INSERT INTO results (smiles_str, result) VALUES
  ('O=C(/C=C/C=C/c1ccc2c(c1)OCO2)N1CCCCC1', 0.0156);
